This collection of values is drawn from paper PMC12820563.

Target: MBP-FoxP1dN (Mus musculus, UniProt P58462 326-579)
Sequence: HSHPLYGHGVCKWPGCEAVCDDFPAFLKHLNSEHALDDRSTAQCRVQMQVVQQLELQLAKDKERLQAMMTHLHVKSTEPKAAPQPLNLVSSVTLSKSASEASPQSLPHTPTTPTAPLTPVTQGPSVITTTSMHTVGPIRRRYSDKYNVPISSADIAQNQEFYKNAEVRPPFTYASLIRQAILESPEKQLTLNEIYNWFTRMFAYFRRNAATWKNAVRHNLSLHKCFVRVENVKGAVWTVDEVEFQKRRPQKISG
Experiment: PD-seq (MBP pull-down with sequencing); 20 mM Tris-HCl pH 7.5, 100 mM NaCl, 1.5 mM MgCl2, 0.4 uM protein, 0.1 uM dsDNA library, 30 min, room temperature, amylose pull-down; high values mean tight binding
Settings: protein: recombinant; tags: His6-MBP; chain copies: 2; dsDNA, one strand shown
The full ranking holds about 16,000 sequences; the median of “rpm ratio (pull-down/input)” is about 0.94, and the highest 2% start at about 1.7. For the sample, the highest values were picked, then their nearest neighbours and some sequences at random.
quantity: binding signal

Past entries and their recorded results:
Form field binding signal, entry GATGATTGTTCTCCCAGCTGATGAATTTATTGTGTCGAGTAAACAAATTTTCCTAATCTTTCTGTTCAAGCGCCATCTAC : 1.88 RPM ratio (pull-down/input)

So for GATGATTGTTCTCCCAGCTGATGAATTCAATGAATCGAGTAAACAAATTTTCCTAATCTTTCTGTTCAAGCGCCATCTAC , the logged binding signal turned out to be 0.93 RPM ratio (pull-down/input)

Form: sequence = GATGATTGTTCTCCCAGCTGATGAATTTATTACGTCGAGTAAACAAATTTTCCTAATCTTTCTGTTCAAGCGCCATCTAC ; binding signal = 1.11 RPM ratio (pull-down/input)

Sample GATGATTGTTCTCCCAGCTGATGAATTTTTTACGTCGAGTAAACAAATTTTCCTAATCTTTCTGTTCAAGCGCCATCTAC ; binding signal observed: 0.984 RPM ratio (pull-down/input)

// binding signal lookup, sequence = GATGATTGTTCTCCCAGCTGATGAATTGTCCCTCTCGAGTAAACAAATTTTCCTAATCTTTCTGTTCAAGCGCCATCTAC , result: 0.967 RPM ratio (pull-down/input)

Would you be so kind as to report binding signal for each listed record?
1. GATGATTGTTCTCCCAGCTGATGAATTTATATTGTCGAGTAAACAAATTTTCCTAATCTTTCTGTTCAAGCGCCATCTAC
2. GATGATTGTTCTCCCAGCTGATGAATTTTATCTGTCGAGTAAACAAATTTTCCTAATCTTTCTGTTCAAGCGCCATCTAC
3. GATGATTGTTCTCCCAGCTGATGAATTCTTATTGTCGAGTAAACAAATTTTCCTAATCTTTCTGTTCAAGCGCCATCTAC
4. GATGATTGTTCTCCCAGCTGATGAATTCTTTACGTCGAGTAAACAAATTTTCCTAATCTTTCTGTTCAAGCGCCATCTAC
5. GATGATTGTTCTCCCAGCTGATGAATTGTTTACGTCGAGTAAACAAATTTTCCTAATCTTTCTGTTCAAGCGCCATCTAC
6. GATGATTGTTCTCCCAGCTGATGAATTGTATGTATCGAGTAAACAAATTTTCCTAATCTTTCTGTTCAAGCGCCATCTAC

2.36 RPM ratio (pull-down/input)
0.918 RPM ratio (pull-down/input)
2.49 RPM ratio (pull-down/input)
0.992 RPM ratio (pull-down/input)
2.79 RPM ratio (pull-down/input)
1.67 RPM ratio (pull-down/input)
